Source listed as patent US6720423B2.

# target.or.test.system: RXRγ (UniProt P28705)
# run.description: receptor transactivation assay, RXRγ
# Assay type: cell-based
# Set-up: RXR Trans; other: RXRγ; first entry of cell
# condition.details: parenthesised number, not defined in the patent
# Excerpt: A holoreceptor transactivation assay and a ligand binding assay which measure the antagonist/agonist like activity of the compounds of the invention, or their ability to bind to the several retinoid receptor subtypes, respectively, are described in published PCT Application No. WO WO93/11755 (particularly on pages 30-33 and 37-41) published on Jun. 24, 1993, the specification of which is also incorporated herein by reference. […]
readout.name: RXR Trans. γ, number in parentheses after EC50

compound.string	result.value
CCc1cc([C@@]2(C)C[C@H]2/C=C/C(C)=C/C(=O)O)cc2c1OCC2(C)C	85
CC(/C=C/[C@@H]1C[C@]1(C)c1cc(Br)c2c(c1)C(C)(C)CO2)=C\C(=O)O	111
CCCCCCc1cc([C@@]2(C)C[C@H]2/C=C/C(C)=C/C(=O)O)cc2c1OCC2(C)C	99
CC(/C=C/[C@@H]1C[C@]1(C)c1cc(CC2CCCCC2)c2c(c1)C(C)(C)CO2)=C\C(=O)O	83
CC(/C=C/[C@@H]1C[C@]1(C)c1cc(-c2c(C)cccc2C)c2c(c1)C(C)(C)CO2)=C\C(=O)O	105
CC(/C=C/[C@@H]1C[C@]1(C)c1cc(-c2ccc(C(C)(C)C)cc2)c2c(c1)C(C)(C)CO2)=C\C(=O)O	80
CC(/C=C/[C@@H]1C[C@]1(C)c1ccc2c(c1)C(C)(C)CO2)=C\C(=O)O	119
